test: solvent given as SMILES; conditions: in Cc1ccccc1
MEASUREMENT LABEL: emission maximum (nm)
// note: answer is a bare numeric in nm

A selection of reference data follows.
1. Nc1ccc(-c2ccc(N)cc2)cc1    395
2. c1ccc(Cn2c3sccc3c3c4nsnc4c4c5ccsc5n(Cc5ccccc5)c4c32)cc1    508
3. c1ccc2c(c1)Sc1ccccc1N2c1ccc2c(c1)C1(CC1)c1cc(N3c4ccccc4Sc4ccccc43)ccc1-2    494
4. c1ccc(-c2nc(-c3ccccc3)c(-c3ccccc3)o2)cc1    381

Moving on to another molecule below.
Problem: State its emission maximum: CN(C)c1ccc2nc(/C=C/c3cc4c5c(c3)CCCN5CCC4)c(=O)oc2c1
Result: 596

* * *

experiment: solvent given as SMILES; settings: in ClC(Cl)Cl
# emission maximum listing for each entry below
// note: answer is a bare numeric in nm

1. CCCCCCn1c2cc(/C=C(\C#N)c3ccccc3)ccc2c2ccc(/C=C(\C#N)c3ccccc3)cc21    469.48
2. c1ccc2c(-n3cnc4ccccc43)cccc2c1    362
3. CN(C)c1ccc(/C=C/C(=O)c2ccc(Cl)cc2)cc1    522
4. CN1CCc2cc(C3=Cc4cccc[n+]4[B-](F)(F)O3)ccc21    515
5. O=P1(c2ccccc2)C(c2cc(C(F)(F)F)cc(C(F)(F)F)c2)=Cc2c3ccc4cccc5ccc(c6cc(-c7ccc(N(c8ccccc8)c8ccccc8)cc7)n1c26)c3c45 (configuration not stated)    603

Moving on to another compound below.
Problem: State its emission maximum: CCC1=C(C)C(=O)n2c1cc1c(C)c(CCC(=O)O)c(C)n1c2=O
Result: 490

* * *

# emission maximum listing for each entry below
test: solvent given as SMILES; settings: in CC#N
// note: answer is a bare numeric in nm

Problem: State its emission maximum: CN(C)c1ccc(/C=C/C=C2\CC/C(=C\c3ccc(N(C)C)cc3)C2=O)cc1
Result: 666

* * *

experiment: solvent given as SMILES; details: in CC(C)=O
# emission maximum listing for each entry below
// note: answer is a bare numeric in nm

1) COC(=O)c1ccc(C#Cc2ccc(N(C)C)cc2)cc1    426.99

Problem: State its emission maximum: CCC1(CC)c2cc(B(c3c(C)cc(C)cc3C)c3c(C)cc(C)cc3C)ccc2-c2ccc(N(c3ccccc3)c3ccc4c(c3)C(CC)(CC)c3cc(B(c5c(C)cc(C)cc5C)c5c(C)cc(C)cc5C)ccc3-4)cc21
Result: 515

Problem: State its emission maximum: COc1ccc(/C=C/c2ccc(-c3nnc(-c4ccc(-c5cc6ccccc6s5)cc4)o3)cc2)cc1
Result: 449

Problem: State its emission maximum: Cc1ccc(-n2c3ccccc3c3cc(C=C(C#N)C#N)ccc32)cc1
Result: 502

Problem: State its emission maximum: COc1cccc(OC)c1C1=C2C(C)=CC(C)=[N+]2[B-](F)(F)n2c(C)cc(C)c21
Result: 516

Problem: State its emission maximum: CN(C)c1ccc(/C=C/c2cc(/C=C/c3ccc(N(C)C)cc3)nc(/C=C/c3ccc(N(c4ccccc4)c4ccccc4)cc3)n2)cc1
Result: 561

Problem: State its emission maximum: CN(C)c1ccc(C2=Nc3sc4cc(C(F)(F)F)ccc4[n+]3[B-](F)(F)O2)cc1
Result: 495

Problem: State its emission maximum: c1ccc(N(c2ccccc2)c2ccc(-c3ccc4c(c3)C3(c5cc(-c6ccc(N(c7ccccc7)c7ccccc7)cc6)ccc5S4)c4ccccc4-c4ccccc43)cc2)cc1
Result: 414.99

Problem: State its emission maximum: O=S(=O)([O-])c1ccccc1/C=C/c1ccc(-c2nnc(-c3ccc(/C=C/c4ccccc4S(=O)(=O)[O-])cc3)o2)cc1
Result: 416

Problem: State its emission maximum: COc1ccc(-n2c3ccccc3c3cc(/C=C/C(=C(C#N)C#N)c4ccccc4)ccc32)cc1
Result: 582

Problem: State its emission maximum: COc1ccc(/C=C/c2nc(/C=C/c3ccc(N(C)C)cc3)cc(/C=C/c3ccc(N(C)C)cc3)n2)cc1
Result: 559

* * *

assay: solvent given as SMILES; settings: in C1CCOC1
Label rule, in plain words: emission maximum of 500 nm and up is Y, under 500 nm is N.

1. CCCCC(CC)CN1C(=O)c2cccc3c(C#Cc4ccc(N(c5ccccc5)c5ccc(C#Cc6ccc7c8c(cccc68)C(=O)N(CC(CC)CCCC)C7=O)cc5)cc4)ccc(c23)C1=O (stereo unspecified)    Y
2. CC(=O)c1ccc2ccc3c(NCCC(=O)NCCCCCCc4nc5c(=O)[nH]c(N)nc5n4[C@H]4C[C@H](O)[C@@H](CO)O4)ccc4ccc1c2c43    Y
3. COc1ccc2c(c1)c1ccc3cccc4c5cccc6oc(=O)c2c(c65)c1c34    N

Problem: Dear colleague, could you confirm whether CCCCCCCCCCCCCCCCn1c(-c2cc(-c3nc4ccccc4n3CCCCCCCCCCCCCCCC)cc(-c3nc4ccccc4n3CCCCCCCCCCCCCCCC)c2)nc2ccccc21 has emission maximum at or above 500 nm?
Result: N

Problem: Dear colleague, could you confirm whether CCCCC(CC)CN1C(=O)c2cccc3c(C#Cc4ccc(N(c5ccccc5)c5ccccc5)cc4)ccc(c23)C1=O (stereo unspecified) has emission maximum at or above 500 nm?
Result: Y

* * *

experiment: solvent given as SMILES; conditions: in c1ccncc1
MEASUREMENT LABEL: emission maximum (nm)
// note: answer is a bare numeric in nm

A selection of reference data follows.
1. CN(C)c1ccc(/C=C/C=C2\CC/C(=C\c3ccc(N(C)C)cc3)C2=O)cc1    643
2. N#Cc1ccc(-c2ccc(C3=CCCCC3)s2)s1    448

Problem: State its emission maximum: CN(C)c1ccc(/C=C/c2cc[n+](C)cc2)cc1
Result: 605

* * *

# emission maximum listing for each entry below
test: solvent given as SMILES; conditions: in ClCCl
// note: answer is a bare numeric in nm

1) CCC1=C(C)C2=C(c3c4ccccc4c(C)c4ccccc34)c3c(C)c(CC)c(C)n3[B-](F)(F)[N+]2=C1C    543
2) CCCCCCCCCCCCN1C(=O)c2c(c3ccc4cc(-c5cccs5)c(OC)cc4c3c3c2ccc2cc(-c4cccs4)c(OC)cc23)C1=O    545
3) c1ccc(N(c2ccccc2)c2ccc(-c3ccc4c(c3)C3(c5cc(-c6ccc(N(c7ccccc7)c7ccccc7)cc6)ccc5S4)c4ccccc4-c4ccccc43)cc2)cc1    410
4) COc1ccc(-c2c3ccc(=[N+]4CCCCC4)cc-3oc3cc(N4CCCCC4)ccc23)cc1    582

Problem: State its emission maximum: CC(=O)c1ccc(-c2cc(C)[o+]c(C)c2)cc1
Result: 405

Problem: State its emission maximum: CN(C)c1ccc(/C=C/c2cnc(/C=C/c3ccc(C#N)cc3)o2)cc1
Result: 640

Problem: State its emission maximum: CCOC(=O)c1c(-c2cc3ccccc3oc2=O)nn(-c2ccc(OC)cc2)c1C(=O)OCC
Result: 457

Problem: State its emission maximum: O=C1OC(=O)c2ccc(N(c3ccccc3)c3c4ccccc4cc4ccccc34)c3cccc1c23
Result: 608

* * *

experiment: solvent given as SMILES; conditions: in CO
Response field label: string, one of 1 (emission maximum strictly below 500 nm) or -1.

Please review the following examples before continuing.
1) CCN1\C(=C/C=C/C=C/C2=[N+](CC)c3ccc4ccccc4c3C2(C)C)C(C)(C)c2c1ccc1ccccc21    -1
2) CC(C)(C)C1Nc2ccccc2C(=O)N1c1ccccc1 (stereo not given)    1
3) C#CCOc1ccc(C2=[N+]3C(=Nc4c(-c5ccccc5)cc(-c5ccc(O)cc5)n4[B-]3(F)F)C(c3ccccc3)=C2)cc1    -1

Problem: Strictly below 500 nm in emission maximum? CN(C)c1ccc(/C=C2\OC(=O)c3cc(N)ccc32)cc1
Result: -1

Problem: Strictly below 500 nm in emission maximum? CCC1=C(C)C(=O)n2c1cc1c(C)c(CC)c(C)n1c2=O
Result: -1

* * *

test: solvent given as SMILES; conditions: in ClCCl
Label rule, in plain words: emission maximum of 600 nm and up is Y, under 600 nm is N.

Please review the following examples before continuing.
1. CCOC(=O)c1c(-c2c(Cl)c3ccccc3oc2=O)nn(-c2ccccc2)c1C(=O)OCC    N
2. CCOC(=O)COc1ccc(/C=C/C2=[N+]3C(=Cc4c5ccccc5c(-c5[nH]c(C)cc5C)n4[B-]3(F)F)C(C)=C2)cc1    Y
3. CCOC(=O)c1ccc(C2=Cc3cc4ccccc4cc3P2(=O)c2ccccc2)cc1 (stereo not drawn)    N
4. c1ccc(Cn2c3sccc3c3c4nsnc4c4c5ccsc5n(Cc5ccccc5)c4c32)cc1    N
5. Cc1cc2c3ccccc3sc2c2[nH]c3ccccc3c12    N

Problem: Dear colleague, could you confirm whether c1ccc([Si]2(c3ccccc3)c3ccccc3-c3cc4c(cc32)-c2ccccc2[Si]4(c2ccccc2)c2ccccc2)cc1 has emission maximum at or above 600 nm?
Result: N

Problem: Dear colleague, could you confirm whether CC(=O)c1c2c(cc3cc(N(C)C)ccc13)CCC2 has emission maximum at or above 600 nm?
Result: N
